Value source: patent US20160176924A1

molecular target: HIS-PDZ3 protein (PSD-95 PDZ3, residues 309-401, with tag …) (human, UniProt P78352 309-401); assay: FP competition, fluorescent CRIPT probe
Sequence (P78352 other isoform, or with tags, fused parts or gaps limits assumed): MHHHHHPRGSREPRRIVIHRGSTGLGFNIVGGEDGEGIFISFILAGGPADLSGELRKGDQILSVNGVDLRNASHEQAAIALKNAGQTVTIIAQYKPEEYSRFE
pKi: −log10 of the molar value. Ends that are not written are not given here. * marks the point of attachment. cyclohexylethyl = C1CCC(CC*)CC1
Think of 4 as a floor: if pKi stands on it or above, it is 1; beneath it, -1.

>  <Binder>
ATAV [ATAV (68)]

>  <Answer label>
-1

$$$$
>  <Binder>
cyclohexylethyl-ETAV [N-Cyclohexylethyl-ETAV (56)]

>  <Answer label>
1

$$$$
>  <Binder>
ETAV [ETAV (51)]

>  <Answer label>
-1

$$$$
>  <Binder>
cyclohexylethyl-QTAV [QTAV (72), N-cyclohexylethyl]

>  <Answer label>
-1

$$$$
